experiment: yeast display, Sf9 membrane polyspecificity reagent, FACS + sequencing; frameworks hold sequencing errors
reported-metric: polyreactivity (PSR sort gate)

[Q] Fill in the blank: the reported polyreactivity (PSR sort gate) of QVQLVESGGGLVQAGGSLRLSCAASGSTFFRYARGWYIQAPGKEREFVAAISKRGGSTHYADSVKGRFTISRDNAKKTVYLQMNSLKPADTAVYYCAASSFTSSYNYWGQGTQVTVSS is ____.
[A] high polyreactivity

[Q] For QVQLVESGGGLVQAGGSLRLSCAASGRTFQDNAMGWYRQAPGKERELVAAIRDNGGSTYYADSVKGRFTISRDNAKNTVYLQMNSLKPEDTAVYYCAADQGTGSYDYWGQGTQVTVSS then?
[A] low polyreactivity

[Q] For QVQLVESGGGLVQAGGSLRLSCAASGSTFTENAMGWYRQAPGKERELVATISTSDGSTHYADSVKGRFTISRDNAKNTVYLQMNSLKPEDTAVSYCAARPDYYLWHGYYTRRHYYWGQGTQVTVSS then?
[A] low polyreactivity

[Q] For QVQLVESGGGLVQAGGSLRLSCAASGRTFIGYAMGWYIQAPGKERELVAAISPGGSTKYADSVKGRFTISRDNAKNTVYLQMNILKPEDTAVYYCNAYSQSWNFYGDGDYWGQGTQVTVSS then?
[A] low polyreactivity

[Q] For QVQLVESGGGLVQAGGSLRLSCAASGRIFGYYTMGWYRQAPGKERELVAGITRRGGRTYYADSVKGRFTISRDNAKNTVYLQMNSLKPEDTAVYYCAVRSGVNFYYWGQGTQVTVSS then?
[A] high polyreactivity

Could you tell me polyreactivity (PSR sort gate) for each of these sequences? They are listed below.
1. QVQLVESGGGLVQAGGSLRLSCAASGSIFASNAMGWYRQAPGKERELVAAINSGDSTNYADSVKGRFTISRDNAKNTVYFQMNSLKPEDTAVYYCARGLEERYDYWGQGTQVTVSS
2. QVQLVESGGGLVQAGGSLRLSCAASGPTFGVNAMGWYRQAPGKERELVAVISSTGSTNYSDSVKGRFTISRDNAKYTVYLQMNSLKPEDTAVYYCAVGPNSVGNRSYGFDYWGQGTQVTVSS
3. QVQLQESGGGLVQAGGSLRLSCAASGSISRLDYMGWYRQASGKERELVAAIDNGRTTYYAESVKGRLTISRDNAKYTVYLQMNSLKPEDTAVYCCAAVRGRGGTHAYWGQGTQVTVSG

[A]
low polyreactivity
low polyreactivity
low polyreactivity

Could you tell me polyreactivity (PSR sort gate) for each of these sequences? They are listed below.
1. QVQLVESGGGLVQAGGSLRLSCAASGRTIRYYAMGWYRQAPGKERELVAAITQNGGRTYYADSVKGRFTISRDNAKNTVYLQMNSLKPEDTAVYYCAKAFIQPGYKYDSWGQGTQVTVSS
2. QVQLVESGGGLVQAGGSLRLSCAASGNIFYAYDMGWYRQAPGKERELVAAITNGDSTDYADSVKGRFTISRDNAKNTVYLQMNSLKPEDTAVYYCNAYYLPEPWALGGSQYDYWGQGTQVTVSS
3. QVQLVESGGGLVQAGGSLRISCAASGFTFGPYAMGWYRQAPGKERELVAAISQSGGRTSYADSVKGRFTISRDNAKNTVYLQMNSLKPEDTAVYYCAKRAYGYRSIYRMDYWGQGTQVTVSS
4. QVQLVESGGGLVQAGGSLRLTCAASGLIFYAYAMGWYRPAPWKERELVAAITSGGDTNYADSVKGRFTISRDNAKNTVYLQMNSLKPEDTAVYYCNADPPVFQSVYWRWYHNYDYWGQGTQVTLSS

[A]
high polyreactivity
low polyreactivity
high polyreactivity
low polyreactivity

Could you tell me polyreactivity (PSR sort gate) for each of these sequences? They are listed below.
1. QVQLVESGGGLVQAGGSLRLSCAASGRIFSYYAMGWYRKAPGKERELVAAITSAGGTNYAVSVKGRFTISRDNAKITVYLQMNSLKPEDTAVYYCAADSSVLQNYYRYRYPYVTYNYWGQGTQVTVSS
2. QVQLVESGGGLVQAGGSLRLSCAASGRTFSNYAMGWYRQAPGKERELVAAISQRGGSTYYADSVKGRFTISRDNAKNTVYLLMNSLKPEDTAVYYCNARQTTATGGTGNYWGQGTQVTVSS
3. QVQLVESGGGLVQSGGSLRLSCAASGSIFGSNAMGWYRQAPGKERELVAAISRSGTSTYYADSVKGRFTISRDNAKNTVDLQMTSLKPEDSAVYYSNTAQRYRVYRYDYWGQGTQVTVSS

[A]
1. low polyreactivity
2. high polyreactivity
3. high polyreactivity

Could you tell me polyreactivity (PSR sort gate) for each of these sequences? They are listed below.
1. QVQLVESGGGLVQAGGSLRLSCAASGNIFARYAMGWYRQAPGKERELVAAISRSGGSTYYADSVKGRFTISRDNAKNTVYLQMNSLKPEDTAVYYCNAKSYGVLYWFAYDYWGQGTQVTVSS
2. QVQLVESGGGLVQAGGSLRLSCPASGRIIGGNAMGWYRQAPGKEREFVAAIRASGGSTHYADSVKGRFTISRDNAKNTVYLQMNSLKPEDTAVYDCNALSRNTHLYDYWGQGTQVTVSS
3. QVQLVESGGGLVQAGGSLRLSCAASGSTFRVYAMGWYRQAPGKESELVATISWGGGRTYYADSVKGRFTISRDNAKNTVYLLMNSLKPEDTAVYYCAADQRWTTDQPTAGDYWGQGTQVTVSS
4. QVQLVESGGGLVQAGGSLRLSCAASGSILYGNDMGWYRQAPGKERELVATITSSDSTYYADSVKGRFTISRDNAKNTVYLQMNSLKPEDTAVYYCAADSSEWLLKDDYWGQGTQVTVSS
5. QDQLVESGGGLVQAGGSLRLSCAASGRILINNAMVWYRQAPGKERELVARITRGGRTNYADSVNGRFTISRDNPKNTDYFQMYCPKPVDTAVYDCNAEYVTPYYYGFGAKRDYWGQGTQVTVSS
6. HVQLVESGGGLVQAGGSLRLSCAASGRNYYTYTMGRSRQAPGKEKQLVATITVGTRTNYADSVKGRFTISRDNAQNTVYLQMNSLKRVDTAVYYCNAEWSSKRFTGDDYWGQGTQVTVSS

[A]
["high polyreactivity", "high polyreactivity", "low polyreactivity", "low polyreactivity", "low polyreactivity", "low polyreactivity"]

// data source = the nanobody polyreactivity screen of Harvey et al. (2022)
